MEASUREMENT_TARGET: T1, monkey GPC3 on HEK293T-monkey GPC3 cells (monkey)
T1 construct: whole, on cells
ASSAY_NOTES: FACS on HEK293T-monkey GPC3 cells

- BINDER: "hAb007LH2L1b (antibody, human IgG1, V domains shown, Humanized F3.81.19) VH: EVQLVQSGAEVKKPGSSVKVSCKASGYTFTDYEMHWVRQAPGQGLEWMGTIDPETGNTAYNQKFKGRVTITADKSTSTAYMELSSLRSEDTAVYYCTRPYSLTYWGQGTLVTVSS VL: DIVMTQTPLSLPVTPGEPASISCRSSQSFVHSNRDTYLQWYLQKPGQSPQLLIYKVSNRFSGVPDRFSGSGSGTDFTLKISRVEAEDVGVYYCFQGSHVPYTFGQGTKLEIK"
  EC50 [nM]: 13.2
- BINDER: "hAb001H1L1b (antibody, human IgG1, V domains shown, Humanized F2.169.2) VH: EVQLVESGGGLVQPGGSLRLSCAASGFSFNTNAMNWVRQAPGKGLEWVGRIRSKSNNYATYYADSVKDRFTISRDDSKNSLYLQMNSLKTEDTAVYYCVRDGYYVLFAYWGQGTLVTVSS VL: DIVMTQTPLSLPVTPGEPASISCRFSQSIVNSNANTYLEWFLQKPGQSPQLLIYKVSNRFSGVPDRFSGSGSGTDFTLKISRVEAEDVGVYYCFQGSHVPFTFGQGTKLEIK"
  EC50 [nM]: 1.54
- BINDER: "hAb007LH1L1 (antibody, human IgG1, V domains shown, Humanized F3.81.19) VH: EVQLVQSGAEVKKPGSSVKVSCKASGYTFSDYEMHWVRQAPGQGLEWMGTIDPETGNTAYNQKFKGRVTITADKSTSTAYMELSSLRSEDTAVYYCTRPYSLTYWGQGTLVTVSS VL: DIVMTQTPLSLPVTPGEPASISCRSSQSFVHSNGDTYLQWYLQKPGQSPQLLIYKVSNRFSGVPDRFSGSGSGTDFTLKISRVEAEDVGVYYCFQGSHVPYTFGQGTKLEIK"
  EC50 [nM]: 4.1
